Test system: HIV
Assay: phorbol ester-induced HIV reactivation, HIV-induced syncytia formation with indicator cell
Type: cell-based
Settings: Human immunodeficiency virus 1; U1 cells, PMA stimulation; average value; n = 2; read-out: inhibition of the HIV production IC50, syncytia formation
Catalogue of compounds with associated IC50
Quick note: give the figure in nM, leave out the unit.

| compound | IC50, nM |
| --- | --- |
| COc1ccc2c(c1)c1c3c(c4c5ccccc5n(C)c4c1n2CCC#N)C(=O)NC3=O [Example 1] | 28 |

Data request: Complete the entry with IC50 for CN(C)CCCn1c2ccc(O)cc2c2c3c(c4c5cc(O)ccc5[nH]c4c21)C(=O)NC3=O [Example 2c]
Data returned: 29

---

System: human tumour cells, lung (small cell 1)
Assay: colony formation of human tumour cells: lung (small cell 1)
Format: cell-based
pIC50: −log10 of the molar value.
reported.endpoint: pIC50

Data request: For CN(C)CCCn1c2ccc(O)cc2c2c3c(c4c5cc(O)ccc5[nH]c4c21)C(=O)NC3=O [Example 2c] , write its pIC50.
Data returned: > 7.00

---

Test system: human tumour cells, gastric 2
Assay: colony formation of human tumour cells: gastric 2
Format: cell-based
reported.endpoint: IC50

Data request: Under human tumour cells, gastric 2: report IC50 of CN(C)CCCn1c2ccc(O)cc2c2c3c(c4c5cc(O)ccc5[nH]c4c21)C(=O)NC3=O .
Data returned: < 100 nM

---

Target: MLC kinase (myosin light-chain kinase) (Gallus gallus)
Construct: MLC kinase was purified from chicken stomach; from tissue; host or cells: chicken stomach (gizzard smooth muscle)
Sequence (P11799 935-1906): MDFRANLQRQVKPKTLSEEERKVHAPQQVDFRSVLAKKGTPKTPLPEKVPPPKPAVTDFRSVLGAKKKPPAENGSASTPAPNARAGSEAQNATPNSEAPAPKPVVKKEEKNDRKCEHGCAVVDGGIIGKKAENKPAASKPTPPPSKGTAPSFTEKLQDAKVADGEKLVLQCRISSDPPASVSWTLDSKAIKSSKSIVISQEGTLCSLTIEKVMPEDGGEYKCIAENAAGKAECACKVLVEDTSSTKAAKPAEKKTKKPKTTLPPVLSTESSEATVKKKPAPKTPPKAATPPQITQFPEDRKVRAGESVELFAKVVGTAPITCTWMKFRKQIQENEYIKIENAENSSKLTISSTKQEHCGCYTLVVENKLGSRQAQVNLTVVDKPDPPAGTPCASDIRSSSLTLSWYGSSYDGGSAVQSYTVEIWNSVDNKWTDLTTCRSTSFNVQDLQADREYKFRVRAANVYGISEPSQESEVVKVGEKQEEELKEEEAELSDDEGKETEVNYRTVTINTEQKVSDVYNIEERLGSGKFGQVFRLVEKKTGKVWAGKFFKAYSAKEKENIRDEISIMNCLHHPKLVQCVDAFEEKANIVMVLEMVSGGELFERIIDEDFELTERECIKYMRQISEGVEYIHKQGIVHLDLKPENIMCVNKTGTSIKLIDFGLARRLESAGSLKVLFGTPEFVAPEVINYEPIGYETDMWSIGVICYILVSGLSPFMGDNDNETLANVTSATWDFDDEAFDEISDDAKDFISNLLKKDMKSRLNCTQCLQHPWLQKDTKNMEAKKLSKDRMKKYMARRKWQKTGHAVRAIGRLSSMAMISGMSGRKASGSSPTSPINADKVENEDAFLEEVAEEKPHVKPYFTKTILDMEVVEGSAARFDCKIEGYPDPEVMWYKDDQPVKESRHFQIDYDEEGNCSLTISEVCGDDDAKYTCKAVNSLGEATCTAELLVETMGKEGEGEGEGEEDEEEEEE
Assay: inhibition of MLC kinase, in vitro enzyme test (32P phosphate incorporation)
Format: biochemical, chicken (stomach)
Conditions: 1 nM MLC kinase, 250 μM ATP, pH 7.2, 20 minutes at 30° C.; read-out: inhibition of the protein kinases, MLC-kinase IC50
reported.endpoint: pIC50
Entry type: numeric. Quantity: pIC50, the -log10 of concentration in molar units.

| compound | study.target | readout.value |
| --- | --- | --- |
| COc1ccc2[nH]c3c(c4c(c5c6ccccc6n(C)c35)C(=O)NC4=O)c2c1 [Example 7d] | MLC kinase (myosin light-chain kinase) (Gallus gallus) | 8.08 |
| COc1ccc2c(c1)c1c3c(c4c5ccccc5n(C)c4c1n2CC(O)CN(C)C)C(=O)NC3=O (racemic) [Example 10b] | MLC kinase (myosin light-chain kinase) (Gallus gallus) | 6.92 |
| Cn1c2ccccc2c2c3c(c4c5ccccc5n(CCC#N)c4c21)C(=O)NC3=O [Example 1a] | MLC kinase (myosin light-chain kinase) (Gallus gallus) | 7.26 |

Data request: Dear colleague, please send me the reported pIC50 for COc1ccc2c(c1)c1c3c(c4c5ccccc5n(CCCN(C)C)c4c1n2C)C(=O)NC3=O [Example 1y] when you can.
Data returned: 8.12

Data request: Tell us which pIC50 value is on record for Cn1c2ccc(O)cc2c2c3c(c4c5cc(O)ccc5n(CCC#N)c4c21)C(=O)NC3=O [Example 2f]
Data returned: 8.00

Data request: Report pIC50, nothing else, for this compound: COc1ccc2c(c1)c1c3c(c4c5ccccc5n(CCCC#N)c4c1n2C)C(=O)NC3=O [Example 1h]
Data returned: 7.62

Data request: Please give measured pIC50 of the following entry: Cn1c2ccccc2c2c3c(c4c5ccccc5n(CCCN)c4c21)C(=O)NC3=O [Example 4]
Data returned: 8.92

Data request: Output measured pIC50 for this item: Cc1ccc2[nH]c3c4[nH]c5ccc(C)cc5c4c4c(c3c2c1)C(=O)NC4=O [Example 11e]
Data returned: 6.22
